Origin of the recorded values: ChEMBL document CHEMBL5236572

system: MCF7; assay: Antiproliferative activity against human MCF7 cells assessed as reduction in cell viability incubated for 48 hrs by sulforhodamine assay; format: functional, cell-based; settings: MCF7, 48 h
Metric Name: IC50 (µM)

[
  {
    "Compound": "COc1cc(C2/C(=C/c3ccc([N+](=O)[O-])cc3)C(=O)c3cc(OC)c(OC)c(OC)c32)cc(OC)c1OC (stereo unspecified)",
    "Metric Name": "IC50",
    "Endpoint Unit": "µM",
    "Quantitative Result": 4
  }
]

###

Target: Tyrosinase (Agaricus bisporus, UniProt O42713)
Sequence (O42713 whole entry): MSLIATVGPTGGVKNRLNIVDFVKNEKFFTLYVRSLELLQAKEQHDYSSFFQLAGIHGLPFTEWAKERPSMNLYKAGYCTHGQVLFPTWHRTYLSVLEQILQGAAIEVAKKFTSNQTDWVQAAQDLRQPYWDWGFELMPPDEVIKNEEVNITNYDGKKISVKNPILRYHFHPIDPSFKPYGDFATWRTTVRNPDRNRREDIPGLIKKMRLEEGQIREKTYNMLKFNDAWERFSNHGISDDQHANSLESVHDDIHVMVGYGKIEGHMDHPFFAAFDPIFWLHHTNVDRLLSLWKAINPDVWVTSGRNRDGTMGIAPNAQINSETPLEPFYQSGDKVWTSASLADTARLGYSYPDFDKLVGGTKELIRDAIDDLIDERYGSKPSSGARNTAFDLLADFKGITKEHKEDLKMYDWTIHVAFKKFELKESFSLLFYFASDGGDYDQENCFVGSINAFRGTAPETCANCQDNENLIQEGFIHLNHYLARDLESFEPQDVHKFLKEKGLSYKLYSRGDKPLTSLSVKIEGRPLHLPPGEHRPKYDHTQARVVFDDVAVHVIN
Assay: Inhibition of mushroom tyrosinase using L-DOPA as substrate incubated for 30 mins by spectrophotometric analysis
Metric Name: IC50 (nM)

[
  {
    "Smiles Notation": "O=C1/C(=C/c2ccc(O)cc2O)Cc2ccccc21",
    "Quantitative Result": 34
  }
]
